Listing of pKi toward UniProt:P00734, each taken from a published source.
pKi: −log10 of the molar value.
result-type: pKi

Solved entries:
{"molecule": "Cc1c(F)c(Oc2cccc(Nc3ccccc3)c2)nc(Oc2cccc(C(=N)N)c2)c1F", "pKi": 5.42}
{"molecule": "N=C(N)NNS(=O)(=O)c1ccc2ccccc2c1", "pKi": 6.89}

P. COc1ccc(Oc2ccc(C(C)NC(=O)CNC(=O)Nc3ccc(C(=N)N)cc3)cc2)cc1 (stereo not drawn)
Q. COc1ccc2ccc(C(=N)N)cc2c1C1CCOC1 (stereo not drawn)
Select one. Lower pKi: P or Q Respond using the label that marks the chosen record.
P

---

pKi: −log10 of the molar value.
pKi values for Prothrombin (Homo sapiens, UniProt P00734) compiled from several publications are listed below.
result-type: pKi

Look over these answered cases.
{"molecule": "Cc1ccc(NS(=O)(=O)Cc2ccccc2)c(=O)n1CC(=O)NCc1ccc2[nH]nc(N)c2c1", "result-type": "pKi", "endpoint-value": 7.14}
{"molecule": "C[C@H](NC(=O)[C@@H](CO)NS(=O)(=O)Cc1ccccc1)C(=O)NCc1ccc(C(=N)N)cc1", "result-type": "pKi", "endpoint-value": 6.96}
{"molecule": "N=C(N)NCCCC(NC(=O)CN(CC1(c2ccccc2)CC1)C(=O)CCc1ccccc1)B(O)O (stereo not drawn)", "result-type": "pKi", "endpoint-value": 10.22}

P. Cc1c(F)c(Oc2cccc(C(=N)N)c2)nc(Oc2cccc(N(C)C)c2)c1F
Q. CS(=O)(=O)c1ccccc1-c1ccc(NC(=O)c2cc(C(F)(F)F)nn2-c2cccc(C(=N)N)c2)c(F)c1
Quick one: lower pKi, P or Q ? Provide the label of your selected option as the answer.
P

---

Literature Ki values, system: Prothrombin (Homo sapiens, UniProt P00734).
result-type: Ki (µM)

Some solved entries appear below for comparison.
{"molecule": "COC(=O)CNC(=O)CC1(C(=O)Nc2ccc(C(=N)N)cc2)CC(c2cccc(C(=N)N)c2)=NO1 (configuration not stated)", "Ki (µM)": 3.1}
{"molecule": "Cc1ncc2n1C(=O)N(C1CCN(C(=O)CCS(=O)(=O)c3ccc4cc(Cl)ccc4c3)CC1)C2", "Ki (µM)": 6.2}
{"molecule": "COc1ccc(-n2nc(C(F)(F)F)cc2C(=O)Nc2ccc(-c3ccccc3S(N)(=O)=O)cc2F)c(CN)c1", "Ki (µM)": 15}
{"molecule": "N=C(N)NCCC[C@H](NC(=O)[C@@H](CC1CCCCC1)NCC(=O)O)C(=O)NCc1ccc(C(=N)N)cc1", "Ki (µM)": 1}
{"molecule": "COc1ccc(C#N)c(CNC(=O)Cn2c(C)cnc(NCCc3ccccn3)c2=O)c1", "Ki (µM)": 0.0016}
{"molecule": "N=C(N)c1ccc(/C=C2\\CC(C(=O)O)C/C(=C\\c3ccc(C(=N)N)cc3)C2=O)cc1 (configuration not stated)", "Ki (µM)": 21.5}
{"molecule": "C[N+](C)(C)c1ccc(CNC(=O)c2cc3cc(Cl)ccc3n2Cc2cccc(C(=N)N)c2)cc1", "Ki (µM)": 15.8}
{"molecule": "CC(C)(C)OC(=O)N1C[C@@H](C(=O)N2CCC[C@H]2C(=O)N[C@@H](CCCCN)B2O[C@@H]3C[C@@H]4C[C@@H](C4(C)C)[C@]3(C)O2)[C@H](c2cccc(C(F)(F)F)c2)C1", "Ki (µM)": 0.00032}
{"molecule": "NCc1ccc(Cl)cc1CNC(=O)[C@H](CO)NC(=O)C(CCc1ccccn1)NS(=O)(=O)Cc1ccccc1 (some centres not stated)", "Ki (µM)": 0.25}
{"molecule": "N=C(N)c1ccc2[nH]c(Cc3ccccc3)cc2c1", "Ki (µM)": 0.26}

1. N=C(N)N1CCc2sc(C(=O)N3CCN(C(=O)COc4ccc(OCC(=O)N5CCN(C(=O)c6cc7c(s6)CCN(C(=N)N)C7)CC5)cc4)CC3)cc2C1
2. Nc1[nH]ccc2nc(-c3cccc(-c4cccc(CNC(=O)[C@@H](O)Cc5ccccc5)c4)c3O)cc1-2
Looking at 1 and 2 , which one comes out lower in Ki terms? Select an item and report its label.
1
(1: 29 µM, 2: 99 µM)

P. NC(N)=NOCCNC(=O)Cc1c(Cl)ccc(NCC(F)(F)c2ccc(Cl)cn2)c1F
Q. COc1ccc(-n2nc(NC(=O)OC(C)(C)C)c3c2C(=O)N(c2ccc(-c4ccccc4CN4CC[C@@H](O)C4)cc2)CC3)cc1
# argmax over Ki for candidates P and Q To answer, give the label that identifies your chosen option.
Q
